- Format: binding
Readout Label: pKd
// returns pKd (minus log10 of molar concentration), number only

Quick note, pKd for C[C@@H]1[C@H](O)[C@@H](C)/C=C/C=C/C=C/C=C/C=C/C=C/C=C/[C@H](O[C@@H]2O[C@H](C)[C@@H](O)[C@H](N)[C@@H]2O)C[C@@H]2O[C@](O)(C[C@@H](O)C[C@@H](O)[C@H](O)CC[C@@H](O)C[C@@H](O)CC(=O)O[C@H]1C)C[C@H](O)[C@H]2C(=O)O landed at 6.92
